Record form. Attribute: melting point. Fill in for each entry.
Kindly provide the numeric value in °C only, without the unit symbol.

-- ask Supply melting point value. Item: Cc1ccc(-c2n[nH]cc2-c2ccnc(Nc3ccc(C(=O)N4CCN(C)CC4)cc3)n2)cc1 [Example 59]
-- reply 264

-- ask Dear colleague, please send me the reported melting point for COc1ccc(Nc2nccc(-c3c[nH]nc3-c3ccc(Cl)cc3)n2)cc1OC [Example 68] when you can.
-- reply 261

-- ask Return melting point (reported value) for this compound: COc1cccc(Nc2nccc(-c3cnn(CCN(C)C)c3-c3ccc(Cl)cc3)n2)c1 [Example 75]
-- reply 118

-- ask Return melting point (reported value) for this compound: CN(C)CCn1ncc(-c2ccnc(Nc3ccc(CN4CCN(C)CC4)cc3)n2)c1-c1ccc(Cl)cc1 [Example 77]
-- reply 159
